# Test system: Saccharomyces cerevisiae
# measurement_protocol: Antifungal activity against diploid Saccharomyces cerevisiae 1a by agar dilution method
# Format: functional
value_type: MIC

Example entries and their recorded answers appear below.
COc1ccc(/C=C/C(=O)c2ccccc2)cc1O | > 40 µg/mL
O=C(/C=C/C=C/c1ccccc1)c1ccc(Cl)cc1 | > 40 µg/mL
O=C(/C=C/c1ccc(O)cc1)c1ccc(Cl)cc1 | 35 µg/mL
N#Cc1ccc(/C=C/C(=O)c2ccc(Cl)cc2)cc1 | > 40 µg/mL
O=C(/C=C/c1ccccc1)c1ccccc1 | > 40 µg/mL
O=C(/C=C/c1ccc(O)cc1)c1ccccc1 [4-HYDROXYCHALCONE] | > 40 µg/mL
COc1cc(/C=C/C(=O)c2ccc(Cl)cc2)ccc1O | > 40 µg/mL
O=C(/C=C/c1cccc(O)c1)c1ccc(Cl)cc1 | 20 µg/mL

QUERY: What does the record list as MIC for O=C(/C=C/c1ccc(O)c(O)c1)c1ccc(Cl)cc1 ?
RESULT: > 40 µg/mL

QUERY: Could you do the same for COc1ccc(/C=C/C(=O)c2ccc(Cl)cc2)cc1O , please?
RESULT: > 40 µg/mL

QUERY: Could you do the same for O=C(/C=C/c1ccccc1)c1ccc(Cl)cc1 , please?
RESULT: > 40 µg/mL

QUERY: Could you do the same for O=C(/C=C/c1ccc(O)c(O)c1)c1ccccc1 , please?
RESULT: > 40 µg/mL

====

Catalogue of MIC readings, one per entry.
# Test system: Ogataea angusta
# measurement_protocol: Antifungal activity against Hansenula polymorpha D22 with arg1/arg1 ade1/ADE1 leu2/leu2 URA3/ura3 CYS1/cys1 genotype by agar dilution method
# Assay type: functional

Example entries and their recorded answers appear below.
COc1cccc(/C=C/C(=O)c2ccc(Cl)cc2)c1 | > 40 µg/mL
O=C(/C=C/c1ccc([N+](=O)[O-])cc1)c1ccc(Cl)cc1 | > 40 µg/mL
O=C(/C=C/C=C/c1ccccc1)c1ccc(Cl)cc1 | > 40 µg/mL
N#Cc1ccc(/C=C/C(=O)c2ccc(Cl)cc2)cc1 | > 40 µg/mL
O=C(/C=C/c1ccc(O)c(O)c1)c1ccc(Cl)cc1 | > 40 µg/mL

Next up:
QUERY: What does the record list as MIC for COc1ccc(/C=C/C(=O)c2ccccc2)cc1O ?
RESULT: > 40 µg/mL

====

# System: Saccharomyces cerevisiae
# measurement_protocol: Antifungal activity against haploid Saccharomyces cerevisiae Sigma 1278b by agar dilution method
# Assay type: functional
value_type: MIC

Example entries and their recorded answers appear below.
O=C(/C=C/c1cccc(O)c1)c1ccc(Cl)cc1 | 15 µg/mL
COc1ccc(/C=C/C(=O)c2ccc(Cl)cc2)cc1 | > 40 µg/mL
Cc1ccc(/C=C/C(=O)c2ccc(Cl)cc2)cc1 | > 40 µg/mL
O=C(/C=C/c1ccc([N+](=O)[O-])cc1)c1ccc(Cl)cc1 | > 40 µg/mL
COc1cc(/C=C/C(=O)c2ccc(Cl)cc2)cc(OC)c1O | > 40 µg/mL
CC(=O)Nc1ccc(/C=C/C(=O)c2ccc(Cl)cc2)cc1 | > 40 µg/mL

QUERY: What does the record list as MIC for O=C(/C=C/c1ccc(O)cc1)c1ccc(Cl)cc1 ?
RESULT: > 40 µg/mL

QUERY: Could you do the same for COc1ccc(/C=C/C(=O)c2ccc(Cl)cc2)cc1O , please?
RESULT: > 40 µg/mL

QUERY: Could you do the same for O=C(/C=C/c1cccc(O)c1)c1ccccc1 [3-HYDROXY CHALCONE] , please?
RESULT: 25 µg/mL

QUERY: Could you do the same for O=C(/C=C/c1ccc(Cl)cc1)c1ccc(Cl)cc1 , please?
RESULT: > 40 µg/mL

QUERY: Could you do the same for O=C(/C=C/c1ccccc1)c1ccc(Cl)cc1 , please?
RESULT: > 40 µg/mL
